Origin of values: patent EP0406111A1

Entries and their measured pIC50 follow.
# target.system: capture de (³H)dopamine par les synaptosomes striataux de rat (Rattus norvegicus, UniProt P23977)
# Construct: Les culots résultants P2 contenant les synaptosomes bruts sont ensuite utilisés sans purification supplémentaire; from tissue; host or cells: Wistar rat striatum, crude synaptosomes (P2 pellet)
# assay.overview: biochemical
// pIC50 is dimensionless: -log10 of concentration (M)

molecule=CCN(CC)C1(c2cc3ccccc3s2)CCCCC1 readout_value=7.70

// moving on: another record for pIC50
pIC50 measured on c1ccc2sc(C3(N4CCCCC4)CCCCC3)cc2c1 [BTCP, reference compound] = 7.86

###

# target.system: complexe de recapture de la dopamine (Rattus norvegicus)
# Construct: expériences de compétition sur les membranes de striatum préparées comme ci-dessus; from tissue; host or cells: rat striatal membranes
# Sequence (P23977 whole entry, one chain of several): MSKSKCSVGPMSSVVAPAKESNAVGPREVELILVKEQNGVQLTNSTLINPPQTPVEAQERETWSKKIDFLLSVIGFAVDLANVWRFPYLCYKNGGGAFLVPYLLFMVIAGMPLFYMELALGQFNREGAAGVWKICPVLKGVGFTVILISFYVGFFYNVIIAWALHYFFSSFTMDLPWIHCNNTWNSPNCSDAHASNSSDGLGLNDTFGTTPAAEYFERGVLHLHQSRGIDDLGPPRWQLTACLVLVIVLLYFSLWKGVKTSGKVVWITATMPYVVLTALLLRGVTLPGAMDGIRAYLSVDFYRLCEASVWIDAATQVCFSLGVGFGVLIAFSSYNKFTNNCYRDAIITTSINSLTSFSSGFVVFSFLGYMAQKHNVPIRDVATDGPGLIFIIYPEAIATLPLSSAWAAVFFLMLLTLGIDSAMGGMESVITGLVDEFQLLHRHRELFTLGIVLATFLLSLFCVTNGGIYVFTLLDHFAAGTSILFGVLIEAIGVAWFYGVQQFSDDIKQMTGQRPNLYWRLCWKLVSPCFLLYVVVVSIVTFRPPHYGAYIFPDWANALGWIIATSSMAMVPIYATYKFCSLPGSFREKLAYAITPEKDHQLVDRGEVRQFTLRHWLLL
# assay.overview: biochemical
# Type: binding
# experimental.conditions: read-out: [3H] BTCP IC50
metric: IC50 (nM)
Note: unit nM is implicit; provide only the numeric part.

Tested on complexe de recapture de la dopamine (Rattus norvegicus): c1ccc2sc(C3(N4CCCCC4)CCCCC3)cc2c1 [BTCP, reference compound] . Observed IC50: 8.4
